Tested target: Estrogen receptor (Homo sapiens) (UniProt P03372)
Sequence (P03372 whole entry, looked up): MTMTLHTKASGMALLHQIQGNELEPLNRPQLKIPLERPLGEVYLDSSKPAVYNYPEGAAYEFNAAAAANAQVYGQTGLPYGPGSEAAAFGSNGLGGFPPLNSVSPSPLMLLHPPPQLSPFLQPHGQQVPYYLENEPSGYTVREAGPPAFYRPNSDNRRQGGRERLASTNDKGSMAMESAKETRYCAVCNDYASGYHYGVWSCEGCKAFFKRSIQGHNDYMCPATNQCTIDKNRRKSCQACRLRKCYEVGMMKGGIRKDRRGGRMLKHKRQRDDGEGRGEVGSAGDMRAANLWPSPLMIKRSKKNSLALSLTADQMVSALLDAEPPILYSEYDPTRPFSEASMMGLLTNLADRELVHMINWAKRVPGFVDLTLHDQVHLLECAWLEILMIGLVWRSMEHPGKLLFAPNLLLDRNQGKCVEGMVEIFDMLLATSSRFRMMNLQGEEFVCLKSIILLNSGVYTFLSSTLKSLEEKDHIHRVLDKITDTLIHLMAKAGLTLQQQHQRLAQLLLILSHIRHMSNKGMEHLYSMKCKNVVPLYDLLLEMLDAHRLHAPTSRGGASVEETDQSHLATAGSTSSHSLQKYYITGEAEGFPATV
Procedure summary: qHTS assay to identify small molecule agonists of the estrogen receptor alpha (ER-alpha) signaling pathway using the BG1 cell line (AID 743079); note: nearly all actives have a fitted effect of over 20% in size
Measurement conditions: BG1Luc4E2 cells, ERE-luciferase agonist, 22 h; series mostly up to 70.3 µM
Inconclusive results are not listed. Calls of active or inactive are those of the source. Calls come from the whole dose curve; as a rule, active = well fitted activation curve with a large enough effect in the repeat runs; inconclusive = weak or mixed curves, or effect the other way; inactive = no such curve, though single readings can be large or run the other way.
Possible outcomes: TRUE for active, FALSE for inactive

CCOC(=O)CC(=O)c1cc(F)c(Cl)nc1Cl :: FALSE
CCCCCOC(=O)c1ccc(O)cc1 :: TRUE
CCOc1cc(OCC)c(C(=O)CCC(=O)O)cc1OCC :: FALSE
Cc1cc(NC(=O)C(=O)O)cc(C)c1Oc1ccc(O)c2c1CCC2 :: TRUE
COc1ccc2[nH]c(S(=O)Cc3ncc(C)c(OC)c3C)nc2n1 (stereo unspecified) :: FALSE
CCOC(=O)C1=NN(c2ccccc2)C(=O)C1 :: FALSE
COCCOCCOCCOCCOC :: FALSE
Nc1ccc(C(=O)Nc2ccccc2N)cc1 :: TRUE
C=C(C)C(=O)OCCN(C)C :: FALSE
OCC1CC2CC1C1CCC(CO)C21 (stereo unspecified) :: FALSE
Cc1ncsc1CCO :: FALSE
COCCO :: FALSE
CC(=O)OCCc1ccccc1 :: FALSE
N#Cc1cc2ccccc2c2ccccc12 :: FALSE
Nc1nc(N)c2nc(CNc3ccc(C(=O)N[C@@H](CCC(=O)O)C(=O)O)cc3)cnc2n1 :: FALSE
Cn1c(=O)c2c(ncn2CC(O)CO)n(C)c1=O (stereo unspecified) :: FALSE
O=C(NN1CCCC1)NS(=O)(=O)c1ccc(Cl)cc1 :: FALSE
CC(=O)CC(=O)c1ccccc1 :: TRUE
CCOC(=O)CC(C)C :: FALSE
CC[C@@H]1C[C@H](N(Cc2cc(C(F)(F)F)cc(C(F)(F)F)c2)C(C)=O)c2cc(C(F)(F)F)ccc2N1C(=O)OC(C)C :: FALSE
O=C(O)Cn1c(C(=O)Nc2nc(-c3ccccc3Cl)cs2)cc2ccccc21 :: FALSE
CC(C)(C)c1ccc(OCC2CO2)cc1 (stereo unspecified) :: TRUE
Cc1occc1S :: FALSE
CCCc1ccccc1 :: FALSE
O=C(C(=O)c1ccc(Br)cc1)c1ccc(Br)cc1 :: FALSE
COC(=O)C(C)=O :: FALSE

---

Procedure summary: qHTS assay to identify small molecule agonists of the sonic hedgehog signaling (Shh) pathway - cell viability counter screen (AID 1259366); note: nearly all actives have a fitted effect of over 50% in size
Measurement conditions: NIH/3T3 Gli1-Luc viability, CellTiter-Fluor, 24 h; series mostly up to 92.4 µM
Excerpt: National Center for Advancing Translational Sciences [NCATS] NIH Chemical Genomics Center [NCGC] U.S. Environmental Protection Agency [EPA] National Institutes of Environmental Health Sciences [NIEHS] National Toxicology Program [NTP] U.S. Food and Drug Administration [FDA] The sonic hedgehog (Shh) pathway is essential for normal embryonic development. Dysregulation of the Shh pathway can cause severe developmental defects in organs. […]
Records with an inconclusive call do not appear. Activity calls are given as the source filed them. Calls follow the shape of the dose curve; as a rule, active = well fitted cell-killing curve with a large enough effect in the repeat runs; inconclusive = weak or mixed curves, or effect the other way; inactive = flat fitted curve, though single readings scatter.
Possible outcomes: Yes = active, No = inactive

CCCCCCCCCCCCC(=O)O :: No
CCCCCCCCCO :: No
CCCCCOC(=O)c1ccc(O)cc1 :: No
CN1CCC(=C2c3ccccc3CCc3sccc32)CC1 :: No
O=C(NS(=O)(=O)/C=C/c1cccs1)c1ccc(F)cc1Br :: No
O=c1c2ccccc2nnn1CCl :: No
C1=Cc2ccccc2C1 :: No
COc1ccc(OC)c(OC)c1 :: No
CCCCOc1cc(C(=O)OCCN(CC)CC)ccc1N :: No
Cn1sccc1=O :: Yes
c1ccc(-c2nc[nH]c2-c2ccccc2)cc1 :: No
O=C(NN1CCCC1)NS(=O)(=O)c1ccc(Cl)cc1 :: No
CN(C)C/C=C(/c1ccc(Br)cc1)c1cccnc1 :: No
CCOC(=O)[C@H](CCc1ccccc1)N[C@H]1CCc2ccccc2N(CC(=O)O)C1=O :: No
COCCO :: No
